Molecular target: Mu-type opioid receptor (Cavia porcellus, UniProt P97266)
Sequence (P97266 whole entry): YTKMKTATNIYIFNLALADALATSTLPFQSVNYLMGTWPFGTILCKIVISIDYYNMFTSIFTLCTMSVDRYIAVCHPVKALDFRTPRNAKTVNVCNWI
Assay: Ability to inhibit electrically evoked contractions of isolated muscle preparations of guinea pig ileum (GPI, mu receptor)

- record.smiles: "N[C@@H](Cc1ccc(O)cc1)C(=O)N[C@@H]1CSC[C@@H](C(=O)O)NC(=O)[C@H](Cc2ccccc2)NC(=O)CNC1=O"
  target.entity: "Mu-type opioid receptor (Cavia porcellus, UniProt P97266)"
  IC50, nM: 1.06
- record.smiles: "CC1(C)SC[C@H](C(=O)O)NC(=O)[C@H](Cc2ccccc2)NC(=O)CNC(=O)[C@@H]1NC(=O)[C@@H](N)Cc1ccc(O)cc1"
  target.entity: "Mu-type opioid receptor (Cavia porcellus, UniProt P97266)"
  IC50, nM: 730
- record.smiles: "N[C@@H](Cc1ccc(O)cc1)C(=O)N[C@@H]1CSC[C@H](C(=O)O)NC(=O)[C@H](Cc2ccccc2)NC(=O)CNC1=O"
  target.entity: "Mu-type opioid receptor (Cavia porcellus, UniProt P97266)"
  IC50, nM: 0.56
- record.smiles: "CC1(C)SC[C@@H](C(=O)O)NC(=O)[C@H](Cc2ccccc2)NC(=O)CNC(=O)[C@@H]1NC(=O)[C@@H](N)Cc1ccc(O)cc1"
  target.entity: "Mu-type opioid receptor (Cavia porcellus, UniProt P97266)"
  IC50, nM: 82

Ref: ChEMBL document CHEMBL1135552
